Each item that follows carries a reported inhibition.
- testSystem: Alpha-(1,6)-fucosyltransferase (Homo sapiens)
- Sequence (whole entry): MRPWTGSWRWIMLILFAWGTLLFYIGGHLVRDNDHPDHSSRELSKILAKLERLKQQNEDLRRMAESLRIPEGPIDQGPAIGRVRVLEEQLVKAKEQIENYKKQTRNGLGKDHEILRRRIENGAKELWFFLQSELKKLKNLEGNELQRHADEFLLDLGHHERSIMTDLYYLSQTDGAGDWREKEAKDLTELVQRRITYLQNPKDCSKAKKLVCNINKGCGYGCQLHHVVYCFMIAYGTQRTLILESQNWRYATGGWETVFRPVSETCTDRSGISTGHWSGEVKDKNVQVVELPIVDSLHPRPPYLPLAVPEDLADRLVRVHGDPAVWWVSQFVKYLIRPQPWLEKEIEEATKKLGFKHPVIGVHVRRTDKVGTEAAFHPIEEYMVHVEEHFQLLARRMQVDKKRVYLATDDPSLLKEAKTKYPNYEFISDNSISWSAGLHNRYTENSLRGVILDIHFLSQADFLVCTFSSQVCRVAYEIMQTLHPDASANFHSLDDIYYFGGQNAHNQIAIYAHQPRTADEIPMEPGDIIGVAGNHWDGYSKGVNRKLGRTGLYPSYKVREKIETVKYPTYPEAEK
- methodSummary: Inhibition of FUT8 in human […] cells at 100 uM using (S)-2-(((9H-fluoren-9-yl)methoxy)carbonylamino)-4-((2R,3R,4R,5S,6R)-3-acetamido-5-((2S,3R,4R,5S,6R)-3-acetamido-5-((2S,3S,4S,5R,6R)-4-((2R,3S,4S,5S,6R)-3-((2S,3R,4R,5S,6R)-3-acetamido-4,5-dihydroxy-6-(hydroxymethyl)tetrahydro-2H-pyran-2-yloxy)-4,5-dihydroxy-6-(hydroxymethyl)tetrahydro-2H-pyran-2-yloxy)-6-(((2S,3S,4S,5S,6R)-3-((2S,3R,4R,5S,6R)-3-acetamido-4,5-dihydroxy-6-(hydroxymethyl)tetrahydro-2H-pyran-2-yloxy)-4,5-dihydroxy-6-(hydroxymethyl)tetrahydro-2H-pyran-2-yloxy)methyl)-3,5-dihydroxytetrahydro-2H-pyran-2-yloxy)-4-hydroxy-6-(hydroxymethyl)tetrahydro-2H-pyran-2-yloxy)-4-hydroxy-6-(hydroxymethyl)tetrahydro-2H-pyran-2-ylamino)-4-oxobutanoic acid as substrate after 24 hrs in presence of GDP-fucose by HPLC method relative to control
- Type: cell-based
Please make sure the unit comes right after the number.

Exam item: Which inhibition reading was recorded for the compound CCCS/C(CCO[C@H]1O[C@@H](C)[C@@H](O)[C@@H](O)[C@@H]1O)=N\S(=O)(=O)CCCCCn1cnc2c(=O)[nH]c(N)nc21 ?
Marked response: 14%

Exam item: Please give the result for CCCN/C(CCO[C@H]1O[C@@H](C)[C@@H](O)[C@@H](O)[C@@H]1O)=N\S(=O)(=O)CCCCCn1cnc2c(=O)[nH]c(N)nc21 too.
Marked response: 41%

Exam item: Please give the result for CCN(CC)/C(CCO[C@H]1O[C@@H](C)[C@@H](O)[C@@H](O)[C@@H]1O)=N\S(=O)(=O)CCCCCn1cnc2c(=O)[nH]c(N)nc21 too.
Marked response: 39%

Exam item: Please give the result for CO/C(CCO[C@H]1O[C@@H](C)[C@@H](O)[C@@H](O)[C@@H]1O)=N\S(=O)(=O)CCCCCn1cnc2c(=O)[nH]c(N)nc21 too.
Marked response: 57%

Exam item: Please give the result for C[C@@H]1O[C@H](OCCC(=O)NS(=O)(=O)CCCCCn2cnc3c(=O)[nH]c(N)nc32)[C@@H](O)[C@H](O)[C@@H]1O too.
Marked response: 31%

Exam item: Please give the result for C[C@@H]1O[C@H](OCc2cn(S(=O)(=O)CCCCCn3cnc4c(=O)[nH]c(N)nc43)nn2)[C@@H](O)[C@H](O)[C@@H]1O too.
Marked response: 45%
